# SYSTEM: WcbI (Burkholderia pseudomallei)
# Sequence (Q63R74 1-312 limits assumed): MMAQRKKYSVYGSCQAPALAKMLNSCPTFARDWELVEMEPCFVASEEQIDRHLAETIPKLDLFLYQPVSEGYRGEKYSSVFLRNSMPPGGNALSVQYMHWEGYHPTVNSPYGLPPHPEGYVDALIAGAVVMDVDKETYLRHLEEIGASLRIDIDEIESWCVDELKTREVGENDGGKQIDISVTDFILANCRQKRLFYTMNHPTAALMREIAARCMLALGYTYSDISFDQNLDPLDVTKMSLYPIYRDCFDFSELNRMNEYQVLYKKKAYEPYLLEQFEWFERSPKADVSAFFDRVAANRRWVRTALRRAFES
# ASSAY INFO: biochemical
OUTCOME MEASURE: Kd
Write the figure, then the unit, nothing else.

# query: Kd of entry CC(C)(COP(=O)(O)OP(=O)(O)OC[C@H]1O[C@@H](n2cnc3c(N)ncnc32)[C@H](O)[C@@H]1OP(=O)(O)O)[C@@H](O)C(=O)NCCC(=O)NCCS [coenzyme A]
58 µM
